Test system: NCI-H23 lung
experiment.description: NCI tumour cell line growth inhibition, 48 h; in the data active = GI50 below about 0.43 µM; inactive = the rest
Tick one outcome: active, inactive

Oc1ccc(N=Nc2ccc(Br)cc2)c(O)c1
inactive
Nc1nc(Sc2ccc([N+](=O)[O-])c3nonc23)c2ncn(C3OC(CO)C(O)C3O)c2n1 (stereo unspecified)
inactive
COc1cc(CSc2nc3ccc(Cl)cc3c(=O)n2Cc2ccccc2)cc(OC)c1OC
inactive

What did the test return for "COc1ccc(Nc2ncc(I)c(NCCCNC(=O)C3CCC3)n2)cc1" ?
inactive

What did the test return for "COc1ccc(Sc2[nH]c(C=O)c3ccccc23)cc1" ?
inactive

What did the test return for "CCCCN(CCCC)P(=O)(Oc1ccccc1)Oc1ccccc1" ?
inactive

What did the test return for "O=C(Nc1ccc(I)cc1F)c1cc(Br)ccc1O" ?
inactive

What did the test return for "O=C(COc1ccccc1)NNc1ccccc1" ?
inactive

What did the test return for "CCOc1ccccc1/C=N\N=C(N/N=C/c1ccccc1OCC)N/N=C/c1ccccc1OCC" ?
inactive

What did the test return for "O=c1[nH]c(-c2ccc(Cl)c(Cl)c2)cn1-c1ccc(Cl)cc1" ?
inactive

What did the test return for "Clc1ccc(-c2cnc3c(-c4ccnc(N5CCNCC5)c4)cnn3c2)cc1" ?
inactive

What did the test return for "CCOC(=O)c1c(NN2CCN(CC(F)(F)F)CC2)oc(/C=C2\C=Nc3ncccc32)c1O" ?
inactive

What did the test return for CC(C)[C@@]12C[C@@H](OC(=O)C3CO3)[C@@](C)(O1)[C@@H]1CC[C@@H](C)[C@H]1[C@@H]2OC(=O)/C=C/c1ccccc1 (stereo partly specified) ?
inactive

What did the test return for "OCc1ccc(-c2nc(-c3ccc4c(c3)OCO4)c(-c3ccccn3)[nH]2)cc1" ?
inactive

Origin of measurements: PubChem BioAssay (NCI)
